Tested on: COLO 205 colon
TEST_SUMMARY: NCI tumour cell line growth inhibition, 48 h; in the data active means GI50 below about 0.43 µM; inactive means the rest
Outcome field: choose from label 1 = active, label 0 = inactive

>>> qualitative_label("COC(=O)C1=C(OC(=O)c2ccccc2)C(C(=O)OC)[C@]2(O)[C@@H](C(=O)OC)C1CC(c1ccccc1OC)[C@@H]2C(=O)OC (stereo partly specified)")
"label 0"
>>> qualitative_label("O=C(Nc1ccc(-n2cc(-c3ccncc3)c(-c3ccc(O)c(Cl)c3)n2)cc1)c1cc(C(F)(F)F)cc(C(F)(F)F)c1")
"label 0"
>>> qualitative_label("CNC(=O)C(CCc1ccccc1)NC(=O)C(CC(=O)NO)CC(C)C (stereo unspecified)")
"label 0"
>>> qualitative_label("CN1CCCC1c1cccnc1.O=C(O)c1ccccc1O.O=C([O-])c1ccccc1[OH2+].O=C([O-])c1ccccc1[OH2+].O=C([O-])c1ccccc1[OH2+].[Cu+2] (stereo unspecified)")
"label 0"

Dear colleague, could you share the recorded outcome for COc1cc(/C=C/C(=O)c2ccc(Nc3nc(Nc4ccc(F)cc4)nc(Nc4ccc(Cl)cc4)n3)cc2)cc(OC)c1OC when you have a moment? label 0

Name the outcome recorded for C[CH2][Sn]([CH2]C)([O]C(=O)c1cccc(OC)c1)[O][Sn]([CH2]C)([CH2]C)[O]C(=O)c1cccc(OC)c1 in the assay. label 0

Short answer needed: outcome of this test for COc1cccc2c1C(=O)c1c(O)c3c(c(O)c1C2=O)CC(O)(/C(C)=N/NC(=O)CCCCC(=O)N/N=C(\C)C1(O)Cc2c(O)c4c(c(O)c2C(OC2CC(N)C(O)C(C)O2)C1)C(=O)c1c(OC)cccc1C4=O)CC3OC1CC(N)C(O)C(C)O1 (stereo unspecified) ? label 1

Origin of measurements: PubChem BioAssay (NCI)
